Tested on: LNCaP cells
Assay: Internalization into LNCaP cells, normalized to (125I-I-BA)KuE
Format: cell-based, human
Details: LNCaP cells 1.25 x 10^5/well, 1 h, 37°C, ligand 0.5 nM/well; % of specific internalization of (125I-I-BA)KuE; 68Ga-19F or 18F free-chelator form; mean ± SD, n = 3
Procedure: Internalization studies were carried out according to a previously published procedure (1). Briefly, LNCaP cells were harvested 24 ± 2 hours before the experiment and seeded in poly -L-lysine coated 24-well plates […] and rinsed again with another 250 µL of ice-cold PBS. The internalized activity was determined by incubation of the cells in 250 µL 1 M aqueous NaOH for at least 10 min. […] Free, surface bound and internalized activity was quantified in a γ-counter. […]
result type: Internalization

[[record]]
compound = "CC(C)(C)[Si](F)(c1ccc(C(=O)NC[C@@H](NC(=O)CCC(C(=O)O)N2CCN(CC(=O)O)CCN(CC(=O)O)CCN(CC(=O)O)CC2)C(=O)N[C@H](CCCCNC(=O)CCCCCCC(=O)NCCCC[C@H](NC(=O)N[C@@H](CCC(=O)O)C(=O)O)C(=O)O)C(=O)O)cc1)C(C)(C)C (stereo partly shown) [68/natGa-19/18F-rhPSMA-6, metal not drawn]"
recorded_value = "33 ± 2 % of reference"


====

test system: LNCaP cells; assay: Internalization into LNCaP cells, normalized to (125I-I-BA)KuE; assay type: cell-based, human; conditions: LNCaP cells 1.25 x 10^5/well, 1 h, 37°C, ligand 0.5 nM/well; % of specific internalization of (125I-I-BA)KuE; 68Ga-19F or 18F free-chelator form; mean ± SD, n = 3
Known Internalization of a selection of compounds
result type: Internalization

[[record]]
compound = "CC(C)(C)[Si](F)(c1ccc(C(=O)NC[C@@H](NC(=O)CCC(C(=O)O)N2CCN(CC(=O)O)CCN(CC(=O)O)CCN(CC(=O)O)CC2)C(=O)N[C@H](CCCCNC(=O)CCC(=O)NCCC[C@@H](NC(=O)CC[C@H](NC(=O)N[C@@H](CCC(=O)O)C(=O)O)C(=O)O)C(=O)O)C(=O)O)cc1)C(C)(C)C (stereo partly shown) [68/natGa-19/18F-rhPSMA-7, metal not drawn]"
assay_target = "LNCaP cells"
result_type = "Internalization"
recorded_value = "126 ± 13 % of reference"

[[record]]
compound = "CC(C)(C)[Si](F)(c1ccc(C(=O)NC[C@@H](C(=O)N[C@H](CCCCNC(=O)CCCCCCC(=O)NCCCC[C@H](NC(=O)N[C@@H](CCC(=O)O)C(=O)O)C(=O)O)C(=O)O)n2cc(CNC(=O)CCP(=O)(O)CN3CCN(CP(=O)(O)CCC(=O)O)CCN(CP(=O)(O)CCC(=O)O)CC3)nn2)cc1)C(C)(C)C [68/natGa-19/18F-rhPSMA-5, metal not drawn]"
assay_target = "LNCaP cells"
result_type = "Internalization"
recorded_value = "43 ± 3 % of reference"

[[record]]
compound = "CC(C)(C)[Si](F)(c1ccc(C(=O)N[C@H](CNC(=O)CCC(C(=O)O)N2CCN(CC(=O)O)CCN(CC(=O)O)CCN(CC(=O)O)CC2)C(=O)N[C@H](CCCCNC(=O)CCC(=O)NCCC[C@@H](NC(=O)CC[C@H](NC(=O)N[C@@H](CCC(=O)O)C(=O)O)C(=O)O)C(=O)O)C(=O)O)cc1)C(C)(C)C (stereo partly shown) [68/natGa-19/18F-rhPSMA-8, metal not drawn]"
assay_target = "LNCaP cells"
result_type = "Internalization"
recorded_value = "98 ± 12 % of reference"

[[record]]
compound = "CC(C)(C)[Si](F)(c1ccc(C(=O)NC[C@@H](C(=O)N[C@H](CCCCNC(=O)CCC(=O)NCCC[C@@H](NC(=O)CC[C@H](NC(=O)N[C@@H](CCC(=O)O)C(=O)O)C(=O)O)C(=O)O)C(=O)O)n2cc(CNC(=O)CCP(=O)(O)CN3CCN(CP(=O)(O)CCC(=O)O)CCN(CP(=O)(O)CCC(=O)O)CC3)nn2)cc1)C(C)(C)C [68/natGa-19/18F-rhPSMA-9, metal not drawn]"
assay_target = "LNCaP cells"
result_type = "Internalization"
recorded_value = "180 ± 12 % of reference"


Hey, just so you know, these numbers are from paper PMC7198388.
